Test: activity coefficient (dimensionless); of the first substance listed, at infinite dilution; xn = mol fraction of the nth substance listed
Conditions: 323 K; 101.33 kPa; Liquid; Chromatography; x1 = 0
experimental-endpoint: activity coefficient

• CCCC(C)=O [pentan-2-one] + O=S(=O)([N-]S(=O)(=O)C(F)(F)F)C(F)(F)F.O=S(=O)([N-]S(=O)(=O)C(F)(F)F)C(F)(F)F.O=S(=O)([N-]S(=O)(=O)C(F)(F)F)C(F)(F)F.c1ccc2cc(-n3cc[n+](Cc4cc(C[n+]5ccn(-c6ccc7ccccc7c6)c5)cc(C[n+]5ccn(-c6ccc7ccccc7c6)c5)c4)c3)ccc2c1 = 0.441
